- MEASURED TARGET: human CA9 (carbonic anhydrase IX) (human, UniProt Q16790 38-414)
- RUN DESCRIPTION: BIAcore T100, mAb captured on anti-human IgG, antigen as analyte, 1:1 model; mAb purified by the decapping method (Decapped)
A collection of binders and their measured pKd
// scale note: pKd = -log10(conc_M); give the bare number

{"BINDER": "zu155D5-3 (antibody, human IgG1, kappa, V domains shown, Humanized 155D5, human IgG1 kappa; Tested both protein A purified and decapped; also called zu155D5-CXXA) VH: QVQLVESGGGLVQPGGSLRLSCSASGFSLNSYAMIWVRQAPGKGLEYIGFITTGGTTYYADSVKGRFTISRDNSKNTLYLQMNSLRAEDTAVYYCARDRVKSYDDYGDLDAFEPWGQGTLVTVSS VL: DIQMTQSPSTLSASVGDRVTITCQASQSISSYLAWYQQKPGKAPKLLIYYASTLASGVPSRFSGSGSGTEFTLTISSLQCDDAATYYCLGVYGYSFDDGIAFGGGTKVEIKR", "MEASUREMENT NAME": "pKd", "OBSERVED VALUE": 9.29}
{"BINDER": "zu155D5-5 (antibody, human IgG1, kappa, V domains shown, Humanized 155D5, human IgG1 kappa; Tested both protein A purified and decapped) VH: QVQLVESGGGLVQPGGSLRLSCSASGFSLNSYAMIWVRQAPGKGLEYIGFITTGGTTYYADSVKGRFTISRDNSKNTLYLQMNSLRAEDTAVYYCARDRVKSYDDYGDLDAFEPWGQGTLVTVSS VL: DIQMTQSPSTLSASVGDRVTITCQASQSISSYLAWYQQKPGKAPKLLIYYASTLASGVPSRFKGSGSGTEFTLTITGVQCDDAATYYCLGVYGYSFDDGIAFGGGTKVEIKR", "MEASUREMENT NAME": "pKd", "OBSERVED VALUE": 9.32}

Need pKd of zu155D5-2 (antibody, human IgG1, kappa, V domains shown, Humanized 155D5, human IgG1 kappa; Tested both protein A purified and decapped) VH: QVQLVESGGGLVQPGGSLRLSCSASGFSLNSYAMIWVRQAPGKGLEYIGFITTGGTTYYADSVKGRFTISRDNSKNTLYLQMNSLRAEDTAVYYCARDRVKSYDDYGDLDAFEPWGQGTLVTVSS VL: DIQMTQSPSTLSASVGDRVTITCQASQSISSYLAWYQQKPGKAPKLLIYYASTLASGVPSRFSGSGSGTEFTLTITGVQCDDFATYYCLGVYGYSFDDGIAFGGGTKVEIKR , thanks.
9.23
